# experiment description: NCI Yeast Anticancer Drug Screen. Data for the cln2 rad14 strain (AID 165);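 also: 0% = growth equal to vehicle treated cultures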
# study conditions: S. cerevisiae cln2 rad14 strain, at 50.0 µM, active compounds read high
Compounds without any hit were thinned out: in the full panel of roughly 79,000, 15% have a hit. The source made the active and inactive calls. Rule as the data show it: active = growth inhibition above about 70%; inactive = the rest.

compound | growth inhibition
CC(=O)Nc1cccc2ccc(C)cc12 | 71.3% (active)
CC(C)(C)CC(C)(C)c1ccc(O)c(O)c1 | 92.3% (active)
CCNCCNc1cc(O)c2c(c1O)C(=O)c1ccccc1C2=O | 67.8% (inactive)
Nc1ccc(SSc2ccc(N)cc2)cc1 | 94.1% (active)
CCCCCCCC/C=C1\CCC(CN(C)C)C1=O (centres undefined) | 89.5% (active)
CC1=C(C(=O)Nc2ccccc2C)C(c2ccc(Cl)c(Cl)c2)C(C(=O)Nc2ccccc2C)=C(C)N1 | 78.5% (active)
Cc1cc(NS(=O)(=O)c2ccc(Nc3c4ccccc4nc4c(C(=O)NC(CO)(CO)CO)cccc34)cc2)no1 | 71.5% (active)
CCOC(=O)c1ccc([N+](=O)[O-])o1 | 28.3% (inactive)
Nc1ccc(C2CCC[C@H]2c2ccc(N)cc2)cc1 (some centres undefined) | 39.6% (inactive)
O/N=C(/C[n+]1csc2ccccc21)c1ccccc1 | 37% (inactive)
CC1=C(C(=O)Nc2ccccc2)C(c2cccc([N+](=O)[O-])c2)C(C(=O)Nc2ccccc2)=C(C)N1 | 4.75% (inactive)
CCC(CC)COC(=O)c1ccc(O)c(O)c1 | 99.1% (active)
C=C(c1ccccc1)[N+](=O)[O-] | 99.1% (active)
O=[N+]([O-])c1cc(Cl)c(Cl)cc1NS(=O)(=O)c1ccccc1 | 54.5% (inactive)
NC(CCCNc1nc(O)cc(=O)[nH]1)C(=O)O (centres undefined) | 66% (inactive)
Cc1ccnc2c1ccc1c(C)ccnc12 | 98.5% (active)
O=[N+]([O-])c1cccc2nc3ccccc3c(NCCO)c12 | 92% (active)
Cc1ccc2c(c1)[n+]([O-])c(N)c(C#N)[n+]2[O-] | 15.8% (inactive)
Nc1nc2nn(-c3ccc(C(=O)O)cc3)nc2c(=O)[nH]1 | -7.05% (inactive)
CC(C)/C(Cl)=N\OC(=O)Nc1ccc(S(N)(=O)=O)cc1 | 45% (inactive)
CCN(CC)CCNc1nc(N)c2nc(-c3ccccc3)c(-c3ccccc3)nc2n1 | 27.6% (inactive)
CN(C)CC1CCC/C(=C\c2ccc(Cl)cc2)C1=O (centres undefined) | 87% (active)
O=C(CSC1=NNC2(C(=O)N1)c1ccccc1-c1ccccc12)NC(=S)Nc1ccccc1 | 96.4% (active)
COc1ccc(C(C#N)=C2C=CC(=NOC(=O)Nc3ccccc3)C=C2)cc1 | -1.4% (inactive)

====

# experiment description: NCI Yeast Anticancer Drug Screen. Data for the sgs1 mgt1 strain (AID 161);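 also: 0% = growth of cultures given vehicle only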
# study conditions: S. cerevisiae sgs1 mgt1 strain, at 50.0 µM, active compounds read high
Compounds without any hit were thinned out: in the full panel of roughly 79,000, 15% have a hit.
Please use Fulfilled whenever growth inhibition is not below 70%, and Not fulfilled whenever it is.

molecule | answer label
CC(=O)/C=C1\C(=O)Nc2ccccc21 | Fulfilled
NC1CCCCC1N.O=S(=O)([O-])CCCN1CCN(CCO)CC1.O=S(=O)([O-])CCCN1CCN(CCO)CC1.[Pt+4] | Not fulfilled
COCCCNC(=O)SC | Not fulfilled
COC(=O)C12Oc3ccc(-c4ccc5c(c4O)C(O)=C4C(=O)CC(C)C(O)C4(C(=O)OC)O5)c(O)c3C(O)=C1C(=O)CC(C)C2O (stereo not drawn) | Fulfilled
COC(=O)c1n[nH]c(C)c1N=NN1CCC(C(N)=O)CC1 | Fulfilled
Cc1ccc(NC(=O)CSC(N)=O)cc1 | Fulfilled
CCOC(=S)SCc1nc2ccccc2[nH]1 | Fulfilled
Nc1ccccc1SCc1csc(-c2ccc(Cl)cc2)n1 | Fulfilled
COCCCNC(=S)N/N=C/c1cc(Cl)cc(Cl)c1O | Fulfilled
Cc1ccc2c(c1)C(=O)N(CC[P+](c1ccccc1)(c1ccccc1)c1ccccc1)C2=O | Not fulfilled
C/C=C(/CN/C(=C\[N+](=O)[O-])c1ccccc1)c1ccccc1 | Fulfilled
CCOC1(OCC)Oc2c(Cl)c(Cl)c(Cl)c(Cl)c2OC1(OCC)OCC | Fulfilled
Clc1ccc(-c2nc3ccc(Cl)cc3[nH]2)cc1 | Not fulfilled
COc1cccnc1/C=N/NC(N)=S | Fulfilled
CSC(SC)=C(C#N)C(=O)Nc1ccc(C)cc1 | Fulfilled
CCCCCCCCCCCCCCCCCCn1[se]c2ccccc2c1=O | Fulfilled
O=S1(=O)CC(Cl)(Cl)C1 | Not fulfilled
COc1ccc(/C=N/Nc2ccccc2)cc1 | Fulfilled
CCCOc1ccc(-c2nc(-c3ccc(N=Cc4ccc(N(CCOS(C)(=O)=O)CCOS(C)(=O)=O)cc4C)cc3)cs2)cc1 | Not fulfilled
CC(=O)O[C@]1(C(C)=O)CC[C@H]2[C@@H]3C[C@H](C)C4=CC(=O)NCC[C@]4(C)[C@H]3CC[C@@]21C | Fulfilled
CCCCCCCC/C=C1\CCC(CN(C)C)C1=O (stereo not drawn) | Fulfilled
CCC[CH2][Sn]([CH2]CCC)([O]C(=O)c1cccc(F)c1)[O]C(=O)c1cccc(F)c1 | Fulfilled

====

# experiment description: NCI Yeast Anticancer Drug Screen. Data for the sgs1 mgt1 strain (AID 161);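 also: 0% = growth of cultures given vehicle only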
# study conditions: S. cerevisiae sgs1 mgt1 strain, at 5.0 µM (retest, dose inferred, filed as 0.5), active compounds read high
The panel holds about 79,000 compounds, 15% with a hit somewhere; the sample as a whole holds those more often.

compound | growth inhibition [%]
CS(=O)(=O)c1nc(Cl)c(Cl)c(C#N)c1Cl | 66
COc1cc2c(cc1O)C1Cc3ccc(OC)c(O)c3C(C2)N1C (stereo unspecified) | 16
C1=C(c2ccccc2)C(c2ccc(OCCN3CCCCC3)cc2)Oc2ccccc21 (stereo unspecified) | 24
O=C1CC(c2ccccc2)C(=O)N2C(=O)CC(c3ccccc3)C(=O)N12 (stereo unspecified) | -5
O=c1cc(-c2ccccc2)[nH]c2ccc(N3CCCC3)cc12 | 13
O=C1CCSC(=S)N1c1ccc(N=Nc2ccccc2)cc1 | 20

====

# experiment description: NCI Yeast Anticancer Drug Screen. Data for the sgs1 mgt1 strain (AID 161);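 also: 0% = growth of cultures given vehicle only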
# study conditions: S. cerevisiae sgs1 mgt1 strain, at 50.0 µM, active compounds read high
Compounds without any hit were thinned out: in the full panel of roughly 79,000, 15% have a hit.
Reported growth inhibition maps to class as: lower = under 50%, middle = from 50% up to 90%, upper = 90% and over

compound | answer label
Nc1ccc(S(=O)(=O)O)c2cccc(S(=O)(=O)O)c12 | lower
CCCCCCCNCCCCCC | middle
O=C1C=C(Br)C(=O)C(Br)=C1 | upper
NCCCSc1ccc(Br)cc1 | lower
O=C1c2ccc3ccccc3c2CN2C(=O)CCC12 (stereo unspecified) | lower
O=C(C=P(c1ccccc1)(c1ccccc1)c1ccccc1)CC(=S)CC(=O)C=P(c1ccccc1)(c1ccccc1)c1ccccc1 | upper
O=C(Nc1ccccc1F)C(Br)C(Br)c1ccccc1 (stereo unspecified) | upper
Nc1ccc2nc3c(nc2c1)C(=O)c1ccccc1-3 | middle
CN(C)CC/C(=N\Nc1ccc(Cl)cc1)c1ccccc1 | upper
CCN(CC)CCNc1ccc2nnn3c4ccc([N+](=O)[O-])cc4c(=O)c1c23 | middle
CCN(CC)c1ccc(SC#N)cc1 | middle
O=C(CNC(=O)c1ccccc1)NNc1ccccc1 | lower
Cc1c2ccncc2cc2c3ccccc3n(C)c12 | upper
C=C1CC(C)(COc2ccc3c(C)c(C)c(=O)oc3c2C)OC1=O (stereo unspecified) | lower
O=C(O)C(CS)Nc1c2ccccc2nc2ccccc12 (stereo unspecified) | middle
CCCCCCCC1SCC(=O)N1c1nncs1 (stereo unspecified) | lower
CCN1/C(=C\c2cc[n+](CC)c3ccccc23)C=Cc2ccccc21 | lower
O=C(NNS(=O)(=O)c1ccccc1)Nc1ccccc1 | lower
CN(C)c1ccc(N=Nc2cccc3ccccc23)cc1 | lower
Cc1c(CCl)c(=O)oc2c(C)c3occ(CCl)c(=O)c3cc12 | middle
COc1ccc(C(=O)Oc2c(Br)cc(Br)cc2Br)cc1 | lower
COC(=O)C1CCC(c2ccccc2)CC1C(=O)OC (stereo unspecified) | lower
COc1ccc(C2Oc3c(cccc3OC)C=C2[N+](=O)[O-])cc1 (stereo unspecified) | lower
CC(=O)N(c1ccccc1)c1nc2ccccc2s1 | lower
C/C(CCSCc1ccccc1)=N/NC(N)=S | middle
COc1ccc(C2=C(Cl)C(=O)N(c3ccc(OC)cc3OC)C(=O)C2(Cl)Cl)cc1 | middle
C(=N\Nc1ccc2ccccc2n1)/c1ccccn1.CC(=O)[O-].CC(=O)[O-].[Zn+2] | middle
Cc1ccc(S(=O)(=O)Oc2ccc3oc4c(CO)ccc(NCCN(C)C)c4c(=O)c3c2)cc1 | upper
CCOc1ccccc1N1C(=O)C=CC1=O | upper
CC(CN(CC(=O)O)CC(=O)O)N(CC(=O)O)CC(=O)O.[Cl][Pd][Cl] (stereo unspecified) | middle
Oc1ccc(/C=N/NC(=S)Nc2ccccc2)nc1 | middle
CCOC(=O)CCc1ccc(OC)c(OC)c1 | lower
COC(O)C(=O)c1c2c(cc3c1CC1(Cc4cc5c(cc4C1)CCC5)C3)CCC2 (stereo unspecified) | middle
CC(=O)OCC1OC(OC(C)=O)C(On2nnc3c(-c4ccccc4)c(C)nn32)C(OC(C)=O)C1OC(C)=O (stereo unspecified) | lower
O=C(N=c1sc2ccccc2s1)N=c1sc2ccccc2s1 | lower
CCOC(=O)c1c(C)[nH]c(C(c2ccccc2)c2[nH]c(C)c(C(=O)OCC)c2C)c1C | middle
Nc1c(-c2c(Cl)cccc2Cl)[n+]([O-])c2ccccc2[n+]1[O-] | middle
CCCCCCCCCCCC(=O)N1CCCC1 | upper
COc1ccc2c(c1)CCC1=C2C=C[P+]1(C)C | upper
CCOC(=O)C(C)(c1c(C)[nH]c2ccccc12)c1c(C)[nH]c2ccccc12 | upper
